All values here come from PubChem BioAssay (NCATS).

Test: Primary qHTS for inhibitors of nuclear receptor binding SET domain protein 2 (NSD2) in an isogenic RCH-ACV NSD2 p.E1099K mutant (9B) (AID 1645876); note: nearly all actives have a fitted effect of over 70% in size
Settings: RCH-ACV (leukaemia line) NSD2 E1099K (9B) viability, CellTiter-Glo, 72 h; series mostly up to 44.9 µM
Results filed as inconclusive are left out. Active and inactive are the calls of the source. Calls come from the whole dose curve; as a rule, active = well fitted inhibition curve with a large enough effect; inconclusive = small, poorly fitted or top-dose-only effect; inactive = flat fitted curve, though single readings scatter.
Select the matching outcome among 1 (yes) = active, 0 (no) = inactive

Recorded results for 6 compounds are shown here.
compound: CCN(CC)CCCCNc1ncc2cc(-c3c(Cl)cccc3Cl)c(NC(=O)NC(C)(C)C)nc2n1
cat: 1 (yes)
--
compound: COc1cc(/C=C/C(=O)N2CCN(CC(=O)N3CCCC3)CC2)cc(OC)c1OC
cat: 0 (no)
--
compound: O=C1NC(=O)/C(=C/c2ccc(-c3ccc(F)cc3O)o2)S1
cat: 1 (yes)
--
compound: CCCSc1ccc2nc(NC(=O)OC)[nH]c2c1
cat: 1 (yes)
--
compound: CC(C(=O)O)c1ccc2c(c1)[nH]c1ccc(Cl)cc12 (configuration not stated)
cat: 0 (no)
--
compound: COc1cc2c3cc1Oc1cc(ccc1O)C[C@@H]1c4c(cc(OC)c(O)c4Oc4ccc(cc4)C[C@@H]3N(C)CC2)CC[N+]1(C)C
cat: 0 (no)

Assay result, entry `CO[C@@]1(NC(=O)Cc2cccs2)C(=O)N2C(C(=O)O)=C(COC(N)=O)CS[C@@H]21` — outcome? 0 (no)

Hello, I am checking results. What call was entered for `CC1(C)S[C@@H]2[C@H](NC(=O)[C@H](N)c3ccccc3)C(=O)N2[C@H]1C(=O)O` ? 0 (no)

Assay outcome for `CC(=O)c1ccc(OCC(=O)N2CCCCC2)cc1` : what was it? 0 (no)

Hey, what did the test say about `Cn1cc(C2=C(c3ccc(Cl)cc3Cl)C(=O)NC2=O)c2ccccc21` ? 1 (yes)

Just curious, what result did `O=C1NC(=O)/C(=C/c2ccc3nccnc3c2)S1` get here? 0 (no)

Please share the test call associated with O=C(O)CC1CC(c2ccccc2)=NO1 (configuration not stated) . 0 (no)

Which outcome was entered for the compound `CCOC(=O)N1CCN(/[N+]([O-])=N/Oc2ccc([N+](=O)[O-])cc2[N+](=O)[O-])CC1` in this test? 1 (yes)

Please state the recorded outcome for this compound: COc1ccnc2c1CCCCC2S(=O)c1nc2ccccc2[nH]1 (configuration not stated) 0 (no)

Which result was noted for this compound in the test: Cc1ccc2c(n1)Oc1ccc(C(C)C(=O)OCC(=O)N(C)C)cc1C2 (configuration not stated) 0 (no)

In this assay, the call recorded for `O=C(O)[C@H](CC(=O)N1C[C@H]2CCCC[C@H]2C1)Cc1ccccc1` was what? 0 (no)

What call does the record list for `CCNc1nc2c(ncn2[C@H]2C[C@H](O)[C@@H](CO)O2)c(=O)[nH]1` ? 0 (no)

Dear all, I need the recorded test outcome for `O=C(/C=C/c1ccc(O)cc1)c1ccc(O)cc1O` , thank you. 1 (yes)

Give the logged outcome of this assay for the following compound: `CCOC(=O)c1ccccc1O` 0 (no)

Per the assay record, what outcome was assigned to `CC(C)OC(=O)c1cc(C(=O)OC(C)C)cc([N+](=O)[O-])c1` ? 0 (no)

For `CN1CC(=O)N/C1=N/C(=O)Nc1cccc(Cl)c1` , which call appears in the assay record? 0 (no)

In this assay, the call recorded for `O=C(Nc1ccc(C(=O)O)c(O)c1)c1ccccc1` was what? 0 (no)
